Values were extracted from patent EP0591583B1.

Target: 5α-reductase (Homo sapiens)
Construct: host or cells: Hs68 human genital skin fibroblasts
Sequence (P18405 whole entry): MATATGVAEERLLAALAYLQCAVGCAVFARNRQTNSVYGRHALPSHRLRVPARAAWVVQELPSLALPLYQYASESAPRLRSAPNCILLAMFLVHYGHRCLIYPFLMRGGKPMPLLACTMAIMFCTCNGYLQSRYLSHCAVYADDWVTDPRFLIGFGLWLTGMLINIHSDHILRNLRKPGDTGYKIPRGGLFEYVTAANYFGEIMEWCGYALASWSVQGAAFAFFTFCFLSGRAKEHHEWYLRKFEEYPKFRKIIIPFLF
Assay: 5α-Reductase activity in Hs68 human genital skin fibroblasts (conversion of labeled testosterone, TLC analysis)
Type: cell-based
Conditions: Hs68, test compound 0.316 µM; Hs68 cells; substrate testosterone 12 µM; incubated four hours; read-out: % Inhibition
metric: inhibition at 0.316 µM

Prompt line: I would be grateful if you could share the reported inhibition at 0.316 µM for CN1C(=O)CC[C@@H]2c3cc([N+](=O)[O-])ccc3CC[C@H]21 (racemic) [Example 47] .
Response line: 49.7%

Prompt line: # get_value(readout='inhibition at 0.316 µM', item= CN1C(=O)CC=C2c3ccc(Cl)cc3CCC21 (racemic) [Example 53] )
Response line: 74.8%

Prompt line: Consider the molecule shown here: CN1C(=O)CC[C@@H]2c3ccc(I)cc3CC[C@H]21 (racemic) [Example 3] What is its recorded inhibition at 0.316 µM?
Response line: 100%

Prompt line: // returns reported inhibition at 0.316 µM for input C[C@]12C=CC(=O)N[C@@H]1CCc1cc(Cl)ccc12 [Example 61]
Response line: 61.5%

Prompt line: Any idea what its inhibition at 0.316 µM is? The molecule is O=C1CC[C@@H]2c3cc(Cl)c(Cl)cc3CC[C@H]2N1 (racemic) [Example 4]
Response line: 82.1%

Prompt line: Can you look up the measured inhibition at 0.316 µM of CC1(C)CC2NC(=O)CCC2c2ccc(Br)cc21 (racemic) [Example 27] for me?
Response line: 44.7%

Prompt line: Need inhibition at 0.316 µM of CN1C(=O)CC[C@]2(C)c3ccc(Cl)cc3CC[C@@H]12 [Example 59] , thanks.
Response line: 71.9%

Prompt line: Query (molecule): CCOC(=O)c1ccc2c(c1)CC[C@@H]1[C@@H]2CCC(=O)N1C (racemic) [Example 58] ; field requested: inhibition at 0.316 µM
Response line: 65.7%

Prompt line: Fill blank: measured inhibition at 0.316 µM of the molecule CN1C(=O)CC[C@@H]2c3ccc(-c4ccccc4)cc3CC[C@H]21 (racemic) [Example 56] is ____.
Response line: 74.8%

Prompt line: Suppose we examine the molecule CN1C(=O)CC[C@@H]2c3cc(Cl)ccc3CC[C@H]21 (racemic) [Example 49] ; what inhibition at 0.316 µM value has been reported?
Response line: 65.7%

Prompt line: Which inhibition at 0.316 µM value belongs to CN1C(=O)CCC2c3ccc(C(C)(C)C)cc3CCC21 (racemic) [Example 31] ?
Response line: 82.1%

Prompt line: Consider the molecule shown here: CN1C(=O)CCC2c3ccc(C=CC(=O)NC(C)(C)C)cc3CCC21 (racemic) [Example 25] What is its recorded inhibition at 0.316 µM?
Response line: 35.9%

Prompt line: May I ask what inhibition at 0.316 µM has been recorded for CN1C(=O)CC[C@@H]2c3cc(N)ccc3CC[C@H]21 (racemic) [Example 48] ?
Response line: 4.36%

Prompt line: What value of measured inhibition at 0.316 µM is listed for CN1C(=O)CCC2c3ccc(C=CC(=O)O)cc3CCC21 (racemic) [Example 24] ?
Response line: 4.96%

Prompt line: Looking for the measured inhibition at 0.316 µM of CCOC(=O)CCc1ccc2c(c1)CCC1C2CCC(=O)N1C (racemic) [Example 22] , can you help?
Response line: 40.7%

Prompt line: I am curious: what inhibition at 0.316 µM value has been reported for CCCCN1C(=O)CC[C@@]2(C)c3ccccc3CC[C@H]12 (relative stereo) [Example 43] ?
Response line: 11.9%

Prompt line: I am curious: what inhibition at 0.316 µM value has been reported for CC(C)(C)c1ccc2c(c1)CCC1NC(=O)CCC21 (racemic) [Example 30] ?
Response line: 38.5%

Prompt line: inhibition at 0.316 µM for C=Cc1ccc2c(c1)CC[C@@H]1[C@@H]2CCC(=O)N1C (racemic) [Example 57] ?
Response line: 66.6%
